Would you mind telling me the reported Kd of each entry?
Target: BCL-xL (Homo sapiens, UniProt Q07817)
Construct: Recombinant full length BCL-XL was produced from a pET-19b (Novagen) plasmid construct; poly-His (N)
Sequence (Q07817 whole entry, species assumed): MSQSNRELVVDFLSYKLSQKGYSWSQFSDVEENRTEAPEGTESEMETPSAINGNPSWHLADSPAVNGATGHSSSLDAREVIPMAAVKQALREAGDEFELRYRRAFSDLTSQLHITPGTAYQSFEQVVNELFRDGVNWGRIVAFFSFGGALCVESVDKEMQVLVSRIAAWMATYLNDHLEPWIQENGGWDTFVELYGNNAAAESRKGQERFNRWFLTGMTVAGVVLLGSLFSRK
Experiment: Dissociation constant (Kd) / binding to BCL-xL
Numbers only, in µM.

// worked examples, Kd included
CC(C)C(C(=O)O)N1C(=O)/C(=C\c2ccc(Br)cc2)SC1=S (stereo not shown) [Compound 1]    1.1
O=C(O)CN1C(=O)S/C(=C\c2ccc(-c3ccccc3)cc2)C1=O [Compound A]    14

Each compound below has a recorded value; state its Kd.
1. CC(=C\c1ccccc1)/C=C1/SC(=S)N(C(C(=O)O)C(C)C)C1=O (stereo not shown) [Compound 3]
2. CC(C)C(C(=O)O)N1C(=O)/C(=C\c2ccc(-c3ccccc3)cc2)SC1=S (stereo not shown) [Compound 2]

1: 11.8; 2: 0.16

Cited source: patent US20090258914A1
